# Study Target: MERS RBD-hFc (MERS-CoV (isolate EMC/2012))
# Experimental Details: SPR Biacore, captured mAb, 25 C
Kindly state t1/2 for each of the entries shown.
The reply should be a number in min, with the unit left off.

Return reported t1/2. Input binder: H1H15188P (antibody, V domains shown) VH: QVQLVQSGAEVKKPGSSVKVSCKASGGSFSVYAISWVRQAPGQGLEWMGGIIPIFGTANYAQKFQDRFTITTDESTSTAYMELSSLRSEDTAMYYCAREGDIVVLPAGKGGMDVWGQGTTVTVSS VL: DIVMTQSPLSLPVTPGEPASISCRSSQSLLHGNGYNYLDWYLQKPGQSPQLLIYLVSHRASGVPDRFSGSGSGTDFTLKISRVEAEDVGVYYCMQALQSPWTFGQGTKVEIK
95

State its t1/2: H2aM15287N (antibody, V domains shown) VH: QLQLQESGPGLVKPSETLSLTCTVSGGSISSGNYYWGWIRQPPGKGLEWFGTIYYSGSTYYNPSLKSRVTISVDTSKNQFSLKLSSVTAADTAVYYCARRAAVGHFDYWGQGTLVTVSS VL: DIQMTQSPSTLSASVGDRVTITCRASQSISTWLAWYQQKPGKAPKLLIYEASSLESGVPSRFSGSGFGTEFTLTISRLQPDDFATYFCQQYNTYWTFGQGTKVEIK
26

Fill in reported t1/2 for this entry: H1H15208P (antibody, V domains shown) VH: EVQLVESGGDLVQPGGSLRLSCTASGFTFSNYEMNWVRQAPEKGLDWVSFISSSGGAIYYADSVKGRFTISRDNAKNSLYLQMNSLRAEDSAIYFCARSDSGGNSRYWGQGTLVTVSS VL: DIQMTQSPSSVSASVGDRVTVTCRASQDISNWLVWYQQKPGKAPKFLIYAASSLQSGVPSRFSGSGSGTDFTLTISSLQPEDFATYYCQQANSFPPTFGGGTKVEIK
48

Give the measured t1/2 for H2aM15270N (antibody, V domains shown) VH: EVQLLESGGGLEQPGGSLRLSCAASGFTFSSYAMIWVRQAPGKGLEWVSTISGSGVNTYYADSVKGRFTISRDNSKNTLHLQMNSLRAEDTAVYHCAKEGLDCANGVCYNYYGMDVWGQGTTVTVSS VL: DIQMTQSPSSLSASVGDRVTITCRASQSINSFLNWYHQKPGKAPKFLIYSASNLQSGVPSRFSGSGSGTDFTLTISSLQPEDFSTYYCQQSYSIPLTFGGGTKVEIK
19

For H2aM15278N (antibody, V domains shown) VH: QVQLVQSGAEVKKPGASVKVSCKASGYTFTSHGISWVRQAPGQGFEWMGWIGTYNSNTDYAQNFQGRVTMTTDTSTSTAYMELRNLRSDDTAVYYCARERGPYYGMDVWGQGTTVTVSS VL: EIVLAQSPGTLSLSPGERATLSCRASQSVNSNYLAWYQQKPGQAPRLLIYGASSRATGIPDRFSGSGSGTDFTLTISRLEPEDFAVYYCQQYGNSLTFGPGTKVDFK , write its t1/2.
13

This collection of values is drawn from patent US20190351049A1.
